The origin of these recorded values is PubChem BioAssay (NCI).

Test system: T-47D breast
Assay: NCI tumour cell line growth inhibition, 48 h
A collection of molecules and their measured TGI

CNc1ccc2c(c1)Cc1ccccc1-2: > 100 µM
COc1cc2c3c(n(CCCN4CCC(N)CC4)c(=O)c2cc1OC)-c1cc2c(cc1C3=O)OCO2: 4 µM
COC(=O)[C@H]1C=C[C@H](OC2OC(COC(C)=O)C(OC(C)=O)C(OC(C)=O)C2OC(C)=O)n2c(=O)n(-c3ccccc3)c(=O)n21 (stereo not given in full): > 28.1 µM

Kindly indicate its recorded TGI. Item: COc1ccc(C2C(C#N)=C(N)OC3=C2CCCc2ccc(F)cc23)cc1OC (stereo not given) 98.3 µM

Name the recorded TGI of the molecule listed here: C=CC(=O)Nc1cccc(Nc2nc(Nc3ccc(OCCOC)cc3)ncc2F)c1 8.9 µM

Give reported TGI value for COC(=O)c1cc(C(=O)OC)cc(-c2ccc3c(c2)-c2nc4c(c(-c5ccc(OC)cc5)c2CC3)CCc2ccc(-c3cc(C(=O)OC)cc(C(=O)OC)c3)cc2-4)c1 > 100 µM

Identify measured TGI corresponding to O=C(O)c1cc2ccccc2c(S(=O)(=O)O)c1O > 100 µM

Look up and report measured TGI for this entry: CC12CCC(C/C1=N\NC(N)=O)C2(C)C (stereo not given) > 100 µM
